# runDescription: RAM signaling pathway blockade in yeast – S. cerevisiae, Pdr1DBD-CYC8 efflux-inhibited sensitized strain, primary screen (AID 1298);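 note: 0% = DMSO untreated cells without growth and 100% = 10 µM 1-NA-PP1 full growth; higher means more yeast growth rescued from 5-FOA killing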
# measurementSetup: S. cerevisiae cbk1-as DSE1-URA3 strain, 5-FOA growth OD615, 2 d; at 50 µM; active compounds read high
attributeMeasured: RAM network inhibition (%)
Give bare numbers, in %.

Please give RAM network inhibition for each item listed below.
1. CCOC(=O)C1CCN(S(=O)(=O)c2cc(Br)cc3c2N(C(C)=O)C(C)C3)CC1 (stereo unspecified)
2. CCN1C(=O)c2ccccc2S(=O)c2ccc(C(=O)NCCCN3CCCC3=O)cc21 (stereo unspecified)
3. CN1CCN(C(=O)C2CCN(S(=O)(=O)c3ccc4c(c3)oc(=O)n4C)CC2)CC1
4. CC(C)(C)NC(=O)CSc1nnc(-c2ccccn2)n1-c1ccccc1

Out:
1. 11.2
2. -1.15
3. 3.79
4. 1.1

Please give RAM network inhibition for each item listed below.
1. CCOC(=O)/C(C#N)=C(/C)c1ccc(OC)cc1
2. COc1ccc(OC)c(C(C)NC=O)c1 (stereo unspecified)
3. Cc1cc(C)c2c(=O)n(CC(=O)N3CCC(N4CCCCC4)CC3)sc2n1
4. O=C(c1ccccc1)n1nc(-c2ccccc2)nc1NCc1ccco1
5. CCCCCn1c(=O)[nH]c2cc(C(=O)NCCCN3CCCCC3)ccc2c1=O
6. COc1cccc(C2C(C(N)=O)=C(C)Nc3nc(CCCO)nn32)c1OC (stereo unspecified)

Out:
1: 3.87; 2: -0.21; 3: 0.2; 4: 6.58; 5: 0.41; 6: 0.27

Please give RAM network inhibition for each item listed below.
1. CCc1ccc(N2CC(C(=O)OCC(=O)NC3CCS(=O)(=O)C3)CC2=O)cc1 (stereo unspecified)
2. CCCn1c(CN2CCN(C(=O)c3ccco3)CC2)nc2c1c(=O)n(C)c(=O)n2C
3. N#CC1=C(N)Oc2cc(O)ccc2C1C1CCCCC1 (stereo unspecified)
4. CCCn1c(C(C)NC(C)=O)nc2ccccc21 (stereo unspecified)
5. CC(Sc1n[nH]c(=O)[nH]c1=O)C(=O)OCc1ccccc1 (stereo unspecified)
6. Cc1ccc(S(=O)(=O)NCCSc2nnnn2-c2ccc(C(N)=O)cc2)cc1

Out:
1. 3.33
2. 2.82
3. 3.93
4. 1.25
5. 5.73
6. 1.74

----------
# runDescription: S. cerevisiae growth inhibition in restrictive medium, OD615, pilot screen, restrictive growth control, yeast lifespan reduction project (AID 706);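 note: modified DeaD lifespan yeast strain shifted to restrictive glucose medium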
# measurementSetup: OD615, 48 h, at 10 µM, active compounds read high
attributeMeasured: growth inhibition (%)
Give bare numbers, in %.

Solved entries:
> print(dat)
                                   compound  endpointunit  reportedresult
1  N#CCCN1CCN(S(=O)(=O)c2ccc(S(=O)(=O)NC3CCCC3)cc2)CC1             %           -4.06
2  CCOc1ccc(N(CC(=O)Nc2cccc(Cl)c2)S(=O)(=O)c2c(C)noc2C)cc1             %           -4.69
3              CCCCOc1ccc(-c2ncc(Cl)cn2)cc1             %           -12.5

Please give growth inhibition for each item listed below.
1. CN(Cc1ccccc1)S(=O)(=O)c1ccc(S(=O)(=O)N2CCN(CCC#N)CC2)cc1
2. CCN1CCN(C(=O)C2CCN(C(=O)c3cc4sccc4n3CC)CC2)CC1
3. O=C(Nc1ccc(Cl)cn1)c1cccnc1
4. CCOC(=O)N1CCC(Nc2ccc3nnc(-c4ccccc4)n3n2)CC1
5. O=C(NCc1ccc(Cl)cc1)C1CCCN(S(=O)(=O)c2cnc[nH]2)C1 (stereo not given)
6. Cc1cc(NC(=O)CSc2nc3c(c(-c4cccnc4)c2C#N)CCC3)no1
7. CC(C)c1nnc(NC(=O)c2cccs2)s1
8. CCOc1cc(CN2CCN(c3cccc(C(F)(F)F)c3)CC2)ccc1O

Out:
-4.41
-13.5
-14.8
29.3
-8.94
1.02
-8.46
-4.3

Please give growth inhibition for each item listed below.
1. CCOC(=O)C1CCN(S(=O)(=O)c2cc(Br)cc3c2N(C(C)=O)C(C)C3)CC1 (stereo not given)
2. COC(=O)c1ccc(Nc2ncnc3c2cnn3-c2cccc(C)c2)cc1
3. CCCOC(=O)CC1C(=O)NCCN1Cc1ccccc1C (stereo not given)
4. CCN(CC)c1ccc(NC(=O)CN2C(=O)CC(C)(C)S(=O)(=O)c3ccccc32)c(C)c1
5. COc1ccc(-c2nc(CSCC(=O)N3CCN(c4cccc(C)c4)C(C)C3)c(C)o2)cc1OC (stereo not given)
6. Cc1onc(-c2ccccc2Cl)c1C(=O)Nc1cnn(Cc2ccccc2)c1

Out:
-29
-25.2
-0.97
-16.1
8.39
-9.34

Please give growth inhibition for each item listed below.
1. Cc1c(NC(=O)c2ccc3c(c2)OCO3)cccc1-c1nc2ncccc2o1
2. Cc1ccc(Oc2ccccc2)c(NC=O)c1
3. Cc1onc(-c2ccccc2Cl)c1C(=O)Nc1nnc(C(C)C)s1
4. CCCc1nnc(NC(=O)NCCN2C(=O)C3C4C=CC(C4)C3C2=O)s1 (stereo not given)
5. Cc1ccc(C)c(N2CCN(C(=O)c3cc4ccccn4n3)CC2)c1
6. O=C(CSc1cn(Cc2ccccc2)c2ccccc12)Nc1nccs1
7. Cc1ccc(OC(=O)CCC(=O)N2CCc3ccccc32)cc1

Out:
-13.2
11.4
4.5
6.19
0.2
3.57
-2.35
